assay_target: PARP-1 (Homo sapiens, UniProt P09874)
Sequence (P09874 whole entry): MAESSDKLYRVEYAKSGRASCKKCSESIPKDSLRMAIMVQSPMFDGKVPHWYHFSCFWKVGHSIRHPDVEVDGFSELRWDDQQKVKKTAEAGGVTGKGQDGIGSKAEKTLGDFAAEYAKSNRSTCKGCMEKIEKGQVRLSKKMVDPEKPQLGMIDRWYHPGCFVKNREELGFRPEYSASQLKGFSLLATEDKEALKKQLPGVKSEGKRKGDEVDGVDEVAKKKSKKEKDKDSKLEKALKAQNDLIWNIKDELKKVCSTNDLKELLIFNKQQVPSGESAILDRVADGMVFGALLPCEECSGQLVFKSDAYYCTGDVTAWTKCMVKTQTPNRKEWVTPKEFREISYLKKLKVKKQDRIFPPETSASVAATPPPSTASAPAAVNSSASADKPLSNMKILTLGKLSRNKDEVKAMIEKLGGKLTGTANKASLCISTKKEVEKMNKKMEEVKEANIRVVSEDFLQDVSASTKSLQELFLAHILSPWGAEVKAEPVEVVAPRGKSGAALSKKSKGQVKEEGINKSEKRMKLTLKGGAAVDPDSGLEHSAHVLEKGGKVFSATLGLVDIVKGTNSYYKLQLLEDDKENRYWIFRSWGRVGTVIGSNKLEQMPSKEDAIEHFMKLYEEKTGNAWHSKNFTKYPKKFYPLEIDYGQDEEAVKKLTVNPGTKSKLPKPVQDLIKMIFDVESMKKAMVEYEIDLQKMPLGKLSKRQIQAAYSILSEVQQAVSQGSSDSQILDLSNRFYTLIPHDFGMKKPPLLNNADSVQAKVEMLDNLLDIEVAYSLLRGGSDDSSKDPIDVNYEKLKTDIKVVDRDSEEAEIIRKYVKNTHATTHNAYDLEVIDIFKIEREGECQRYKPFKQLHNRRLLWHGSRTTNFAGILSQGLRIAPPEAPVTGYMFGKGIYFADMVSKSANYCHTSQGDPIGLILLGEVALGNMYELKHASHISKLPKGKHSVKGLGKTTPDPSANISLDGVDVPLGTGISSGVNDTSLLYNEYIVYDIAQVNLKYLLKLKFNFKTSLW
experiment_summary: biochemical
endpoint_name: IC50
Kindly write the number and append the unit.

Item: "O=C1NCCc2c(OCCCCN3CCCCC3)cccc21" | System: PARP-1 (Homo sapiens, UniProt P09874) | IC50: 23 nM

Values were extracted from patent US20080176261A1.
